Test: Phase 1 study (NCT04249843): plasma pharmacokinetics of Compound A
Assay type: in vivo, human
Conditions: human, plasma, oral, 60 mg, 60 mg QD, C2D1, Mean row, patient 201-011 excluded
MEASURED ENDPOINT: Cmax (ng/mL)
All answers are understood in ng/mL, so give the number only.

Measured Cmax of O=C1CCc2c(Oc3ccc4c(c3)[C@H]3[C@H](NC(=O)Nc5cc(F)c(F)cc5F)[C@H]3O4)ccnc2N1 : 5330

====

Assay: Phase 1 study (NCT04249843): plasma pharmacokinetics of Compound A
Assay type: in vivo, human
Details: human, plasma, oral, 60 mg, C1D1, patient 202-014
MEASURED ENDPOINT: Cmax (ng/mL)
The reply should contain only the number, in ng/mL.

Cmax for O=C1CCc2c(Oc3ccc4c(c3)[C@H]3[C@H](NC(=O)Nc5cc(F)c(F)cc5F)[C@H]3O4)ccnc2N1 is 804

====

Test: Phase 1 study (NCT04249843): plasma pharmacokinetics of Compound A
Format: in vivo, human
Settings: human, plasma, oral; 40 mg QD, C2D1, median (min, max)
MEASURED ENDPOINT: Tmax (h)
Form entry: value (h) — number only.

The compound listed as O=C1CCc2c(Oc3ccc4c(c3)[C@H]3[C@H](NC(=O)Nc5cc(F)c(F)cc5F)[C@H]3O4)ccnc2N1 shows Tmax equal to 1.5

====

Assay: Phase 1 study (NCT04249843): plasma pharmacokinetics of Compound A
Type: in vivo, human
Conditions: human, plasma, oral, 15 mg, C1D1, Mean (%CV); read-out: AUC24 h
MEASURED ENDPOINT: AUC(0-t)
Write your answer as a measured quantity: the number, then the unit.

// AUC(0-t) lookup, molecule = O=C1CCc2c(Oc3ccc4c(c3)[C@H]3[C@H](NC(=O)Nc5cc(F)c(F)cc5F)[C@H]3O4)ccnc2N1 , result: 4780 ng·h/mL

====

Experiment: Phase 1 study (NCT04249843): plasma pharmacokinetics of Compound A
Format: in vivo, human
Details: human, plasma, oral, 5 mg, C1D1, Mean (%CV)
MEASURED ENDPOINT: Cmax

Item: O=C1CCc2c(Oc3ccc4c(c3)[C@H]3[C@H](NC(=O)Nc5cc(F)c(F)cc5F)[C@H]3O4)ccnc2N1 | Cmax: 105 ng/mL

====

Test: Phase 1 study (NCT04249843): plasma pharmacokinetics of Compound A
Type: in vivo, human
Settings: human, plasma, oral, 25 mg, 25 mg QD, C2D1, Mean (%CV); read-out: AUC8 h
MEASURED ENDPOINT: AUC(0-t) (ng·h/mL)
Kindly provide the numeric value in ng·h/mL only, without the unit symbol.

Looking up O=C1CCc2c(Oc3ccc4c(c3)[C@H]3[C@H](NC(=O)Nc5cc(F)c(F)cc5F)[C@H]3O4)ccnc2N1 [Compound A] , I see its AUC(0-t) listed as 12300

====

Experiment: Phase 1 study (NCT04249843): plasma pharmacokinetics of Compound A
Format: in vivo, human
Settings: human, plasma, oral, 40 mg, 40 mg QD, C2D1, patient 101-010; read-out: AUC8 h
MEASURED ENDPOINT: AUC(0-t)
Answer format: value, then unit.

compound O=C1CCc2c(Oc3ccc4c(c3)[C@H]3[C@H](NC(=O)Nc5cc(F)c(F)cc5F)[C@H]3O4)ccnc2N1 [Compound A] , AUC(0-t) observed: 15600 ng·h/mL

Values from patent US20250090507A1
